target: GABAA receptor; test: [35S]-TBPS binding assay, rat brain cortical membranes, in the presence of GABA; settings: inhibition of 3 nM [35S]-TBPS binding, 5 mM GABA, 90 min, room temp
measure-name: IC50

Exercise: Assign IC50 to the following record: C[C@@]1(O)CC[C@H]2[C@H](CC[C@@H]3[C@@H]2CC[C@]2(C)[C@@H](CNS(=O)(=O)C4CC4)CCC[C@@H]32)C1 [Example 32]
Solution: 0.1 to 1 µM

Exercise: Assign IC50 to the following record: CC[C@]12CC[C@@](C)(O)C[C@H]1CC[C@H]1[C@@H]3CCC[C@H](CN(C)C(=O)c4ccccc4)[C@@]3(C)CC[C@@H]12 [Example 37]
Solution: 0.1 to 1 µM

Exercise: Assign IC50 to the following record: CCC[C@@]1(O)CC[C@@]2(C)[C@@H](CC[C@@H]3[C@@H]2CC[C@]2(C)[C@@H]([C@@H](C)Cn4nnc(C)n4)CCC[C@@H]32)C1 [Example 9]
Solution: 0.1 to 1 µM

Exercise: Assign IC50 to the following record: CC[C@]12CCC3[C@H]4CC[C@](O)(COC)C[C@H]4CC[C@H]3[C@@H]1CCC[C@@H]2CNC(=O)c1ccc(C#N)cc1 (some centres unmarked) [Example 41]
Solution: 0.1 to 1 µM

Exercise: Assign IC50 to the following record: CN(C[C@H]1CCC[C@H]2[C@@H]3CC[C@@H]4C[C@](C)(O)CC[C@@H]4[C@H]3CC[C@]12C)C(=O)c1ccccc1 [Example 23]
Solution: 0.1 to 1 µM

Exercise: Assign IC50 to the following record: C[C@H](Cn1cc(C#N)cn1)[C@H]1CC[C@H]2[C@@H]3CC[C@@H]4C[C@](C)(O)CCC[C@@H]4[C@H]3CC[C@]12C [Example 22]
Solution: < 0.1 µM

Exercise: Assign IC50 to the following record: Cn1nccc1C(=O)NC[C@H]1CCC[C@H]2[C@@H]3CC[C@@H]4C[C@](C)(O)CC[C@@H]4[C@H]3CC[C@]12C [Example 33]
Solution: 0.1 to 1 µM

Exercise: Assign IC50 to the following record: C[C@@H]1CC[C@H]([C@@H](C)Cn2cc(C#N)cn2)[C@@]2(C)CC[C@H]3[C@@H](CC[C@@H]4C[C@](C)(O)CC[C@@H]43)[C@H]12 [Example 11]
Solution: < 0.1 µM
